Target: human IL-23R (Homo sapiens, UniProt Q5VWK5)
Construct: Nanoluc luciferase (Nluc); secretion signal encoded by the plasmid (not specified); expressed in transfected cells; crude membranes used in the assay
Sequence (Q5VWK5 22-629): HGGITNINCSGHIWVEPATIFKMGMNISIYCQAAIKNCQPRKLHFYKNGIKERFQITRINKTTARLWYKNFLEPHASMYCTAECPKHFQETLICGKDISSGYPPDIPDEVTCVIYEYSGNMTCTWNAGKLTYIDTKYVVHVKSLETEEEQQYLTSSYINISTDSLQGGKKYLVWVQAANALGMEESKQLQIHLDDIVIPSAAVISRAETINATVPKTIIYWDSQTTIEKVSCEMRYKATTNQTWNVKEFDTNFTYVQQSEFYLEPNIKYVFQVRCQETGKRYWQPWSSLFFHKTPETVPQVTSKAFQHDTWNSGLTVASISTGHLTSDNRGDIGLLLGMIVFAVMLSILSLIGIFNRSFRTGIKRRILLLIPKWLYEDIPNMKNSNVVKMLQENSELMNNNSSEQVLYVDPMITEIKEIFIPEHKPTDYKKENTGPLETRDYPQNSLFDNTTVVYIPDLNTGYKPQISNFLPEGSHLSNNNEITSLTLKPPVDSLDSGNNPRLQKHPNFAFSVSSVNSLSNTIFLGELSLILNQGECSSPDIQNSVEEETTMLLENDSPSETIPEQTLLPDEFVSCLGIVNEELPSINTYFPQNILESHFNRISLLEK
Assay: Binding assay: displacement of fluorophore (TAMRA)-labelled reference compound from human IL-23R (BRET, Nluc-IL23R fusion protein membranes)
Conditions: read-out: % displacement (hIL-23R binding)
*1 amine or outer side, *2 acyl side, *3 side chain or, on linkers, in order; H or OH if unused. Where a SMILES comes first, the peptide text is derived from it. Bridges are numbered along the chain shown (N, C = ends). [ ]: non-standard residue; d: D form. 2Nal = N[C@@H](Cc1ccc2ccccc2c1)C(=O)O; AEF = NCCOc1ccc(C[C@H](N)C(=O)O)cc1; X1 = O=C(Cc1ccc(CN[*:1])cc1)[*:2]; 3Pal = N[C@@H](Cc1cccnc1)C(=O)O; αMeL = CC(C)C[C@](C)(N)C(=O)O; Dab = NCC[C@H](N)C(=O)O
Listed below: Emax values for each entry.
ASSAY METRIC: Emax (%)

COMPOUND: CNC(=O)[C@H](Cc1cncnc1)NC(=O)[C@H](CCN)NC(=O)[C@@H]1CCC(=O)NCc2ccc(cc2)CC(=O)N[C@@H](CO)C(=O)N[C@H]2CCC(=O)NCC[C@H](NC(=O)[C@H](CCC(N)=O)NC(=O)[C@H](Cc3c[nH]c4ccccc34)NC2=O)C(=O)N[C@@H](Cc2ccc(OCCN)cc2)C(=O)N[C@@H](Cc2ccc3ccccc3c2)C(=O)N[C@@](C)(CC(C)C)C(=O)N1
MEASUREMENT UNITS: %
MEAS VALUE: 103
--
COMPOUND: CC(C)C[C@]1(C)NC(=O)[C@H](Cc2ccc3ccccc3c2)NC(=O)[C@H](Cc2ccc(OCCN)cc2)NC(=O)[C@@H]2CCNC(=O)CC[C@H](NC(=O)[C@H](CO)NC(=O)Cc3ccc(cc3)CNC(=O)CC[C@@H](C(=O)N[C@@H](CCN)C(=O)N(C)[C@@H](Cc3cccnc3)C(N)=O)NC1=O)C(=O)N[C@@H](Cc1c[nH]c3ccccc13)C(=O)N[C@@H](CCC(N)=O)C(=O)N2
MEASUREMENT UNITS: %
MEAS VALUE: 111
--
COMPOUND: CNC(=O)[C@H](Cc1cccnc1)NC(=O)[C@H](Cc1c[nH]cn1)NC(=O)[C@@H]1CCC(=O)NCc2ccc(cc2)CC(=O)N[C@@H](CO)C(=O)N[C@H]2CCC(=O)NCC[C@H](NC(=O)[C@H](CCC(N)=O)NC(=O)[C@H](Cc3c[nH]c4ccccc34)NC2=O)C(=O)N[C@@H](Cc2ccc(OCCN)cc2)C(=O)N[C@@H](Cc2ccc3ccccc3c2)C(=O)N[C@@](C)(CC(C)C)C(=O)N1 [Compound 34] ([X1]SEWQ[Dab][AEF][2Nal][αMeL]EH[3Pal]-NHMe; lactam 3-6, N-10)
MEASUREMENT UNITS: %
MEAS VALUE: 90

###

Assay: Peptide stability in simulated intestinal fluid (SIF)
Format: in vitro ADME
Conditions: pig, simulated intestinal fluid; SIF, 1 h, pH 6.8, pancreatin, 37° C., 10 μM
*1 amine or outer side, *2 acyl side, *3 side chain or, on linkers, in order; H or OH if unused. Where a SMILES comes first, the peptide text is derived from it. Bridges are numbered along the chain shown (N, C = ends). [ ]: non-standard residue; d: D form. 2Nal = N[C@@H](Cc1ccc2ccccc2c1)C(=O)O; AEF = NCCOc1ccc(C[C@H](N)C(=O)O)cc1; X1 = O=C(Cc1ccc(CN[*:1])cc1)[*:2]; 3Pal = N[C@@H](Cc1cccnc1)C(=O)O; αMeL = CC(C)C[C@](C)(N)C(=O)O; Orn = NCCC[C@H](N)C(=O)O; Dab = NCC[C@H](N)C(=O)O
remaining at 1 h, 10 µM reference

MOLECULE: CNC(=O)[C@H](Cc1cccnc1)NC(=O)[C@H](CCN)NC(=O)[C@@H]1CCC(=O)NCc2ccc(cc2)CC(=O)N[C@@H](CO)C(=O)N[C@H]2CCC(=O)NCC[C@H](NC(=O)[C@H](CCCN)NC(=O)[C@H](Cc3c[nH]c4ccccc34)NC2=O)C(=O)N[C@@H](Cc2ccc(OCCN)cc2)C(=O)N[C@@H](Cc2ccc3ccccc3c2)C(=O)N[C@@](C)(CC(C)C)C(=O)N1 [Compound 28] ([X1]SEW[Orn][Dab][AEF][2Nal][αMeL]E[Dab][3Pal]-NHMe; lactam 3-6, N-10)
remaining at 1 h, 10 µM / %: 106
--
MOLECULE: CC(C)C[C@]1(C)NC(=O)[C@H](Cc2ccc3ccccc3c2)NC(=O)[C@H](Cc2ccc(OCCN)cc2)NC(=O)[C@@H]2CCNC(=O)CC[C@H](NC(=O)[C@H](CO)NC(=O)Cc3ccc(cc3)CNC(=O)CC[C@@H](C(=O)N[C@@H](CCN)C(=O)N[C@@H](Cc3cn(C)cn3)C(N)=O)NC1=O)C(=O)N[C@@H](Cc1c[nH]c3ccccc13)C(=O)N[C@@H](CCC(N)=O)C(=O)N2
remaining at 1 h, 10 µM / %: 98
--
MOLECULE: CNC(=O)[C@H](Cc1cccnc1)NC(=O)[C@H](CCN)NC(=O)[C@@H]1CCC(=O)NCc2ccc(cc2)CC(=O)N[C@@H](C)C(=O)N[C@H]2CCC(=O)NCC[C@H](NC(=O)[C@H](CCC(N)=O)NC(=O)[C@H](Cc3c[nH]c4ccccc34)NC2=O)C(=O)N[C@@H](Cc2ccc(OCCN)cc2)C(=O)N[C@@H](Cc2c[nH]c3ncccc23)C(=O)NC(C)(C)C(=O)N1
remaining at 1 h, 10 µM / %: 78
